Sourced from paper PMC10709440

- target-entity: Drosophila OR49b (Drosophila melanogaster)
- Construct: expressed in transfected cells
- Sequence (Q9V6H2 whole entry): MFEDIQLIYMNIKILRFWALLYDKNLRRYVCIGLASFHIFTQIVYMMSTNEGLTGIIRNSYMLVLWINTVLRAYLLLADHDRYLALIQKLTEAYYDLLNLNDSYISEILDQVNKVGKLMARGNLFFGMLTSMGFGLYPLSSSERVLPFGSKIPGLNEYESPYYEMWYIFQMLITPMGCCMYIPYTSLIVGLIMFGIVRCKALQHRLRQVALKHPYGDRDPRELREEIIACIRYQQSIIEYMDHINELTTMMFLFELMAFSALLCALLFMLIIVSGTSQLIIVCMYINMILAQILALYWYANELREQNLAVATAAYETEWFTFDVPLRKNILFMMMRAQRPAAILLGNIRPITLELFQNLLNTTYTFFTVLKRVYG
- Sequence (Q9VNB5 whole entry partner): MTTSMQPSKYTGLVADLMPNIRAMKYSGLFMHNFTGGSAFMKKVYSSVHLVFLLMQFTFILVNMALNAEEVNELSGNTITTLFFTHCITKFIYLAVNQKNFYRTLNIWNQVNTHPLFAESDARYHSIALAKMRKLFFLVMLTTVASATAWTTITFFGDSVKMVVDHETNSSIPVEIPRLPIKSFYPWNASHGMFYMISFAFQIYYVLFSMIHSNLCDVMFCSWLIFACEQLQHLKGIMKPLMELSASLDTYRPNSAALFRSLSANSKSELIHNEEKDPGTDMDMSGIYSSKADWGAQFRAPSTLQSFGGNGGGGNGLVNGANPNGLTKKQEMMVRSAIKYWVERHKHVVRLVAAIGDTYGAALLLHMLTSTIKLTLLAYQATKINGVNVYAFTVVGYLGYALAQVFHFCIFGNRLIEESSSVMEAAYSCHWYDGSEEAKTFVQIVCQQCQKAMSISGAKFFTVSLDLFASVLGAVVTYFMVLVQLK
- run-description: cell-based
- condition-label: OR49b cell line; odorant cc. 10 µM; mean of biological replicates
- Description: These VUAA1 normalized ∆F values were used to compare the different receptors and ligands. The concentration-dependent effect of the reference ligands on their cognate cell lines was examined in more detail. Twelve different ligand concentrations were measured on each cell line in an overall 0.01 μM to 100 μM concentration range with 5 repetitions with three technical replicates each time. […]
measurement-kind: Average response
Lab note: record just the number, no unit beside it.

compound | target-entity | experimental-result
CCCOC(C)=O [propyl acetate] | Drosophila OR49b (Drosophila melanogaster) | 0.00
CCCCC(C)=O [2-hexanone] | Drosophila OR49b (Drosophila melanogaster) | 0.00
CC/C=C\CCO [Z3-hexenol] | Drosophila OR49b (Drosophila melanogaster) | 0.00
C=CC(C)(O)CCC=C(C)C (stereo not shown) [linalool] | Drosophila OR49b (Drosophila melanogaster) | 0.00
COC(=O)c1ccccc1O [methyl salicylate] | Drosophila OR49b (Drosophila melanogaster) | 0.00333
C=C1CCC2CC1C2(C)C (stereo not drawn) [beta-pinene] | Drosophila OR49b (Drosophila melanogaster) | 0.05
Cc1ccc(C(C)C)cc1 [p-cymene] | Drosophila OR49b (Drosophila melanogaster) | 0.00
CC(=O)OCC(C)C [isobutyl acetate] | Drosophila OR49b (Drosophila melanogaster) | 0.0342

INPUT: Recorded Average response for CC(=O)c1ccccc1 [acetophenone] with Drosophila OR49b (Drosophila melanogaster), please?
OUTPUT: 0.00

INPUT: Recorded Average response for CC/C=C/CCO [e3-hexenol] with Drosophila OR49b (Drosophila melanogaster), please?
OUTPUT: 0.00

INPUT: Recorded Average response for C=C(C)[C@H]1CC=C(C)CC1 [limonene] with Drosophila OR49b (Drosophila melanogaster), please?
OUTPUT: 0.00
